Cited source: patent US8168651B2

assay.target: Flt3 (Homo sapiens (Human))
Sequence (P36888 27-993): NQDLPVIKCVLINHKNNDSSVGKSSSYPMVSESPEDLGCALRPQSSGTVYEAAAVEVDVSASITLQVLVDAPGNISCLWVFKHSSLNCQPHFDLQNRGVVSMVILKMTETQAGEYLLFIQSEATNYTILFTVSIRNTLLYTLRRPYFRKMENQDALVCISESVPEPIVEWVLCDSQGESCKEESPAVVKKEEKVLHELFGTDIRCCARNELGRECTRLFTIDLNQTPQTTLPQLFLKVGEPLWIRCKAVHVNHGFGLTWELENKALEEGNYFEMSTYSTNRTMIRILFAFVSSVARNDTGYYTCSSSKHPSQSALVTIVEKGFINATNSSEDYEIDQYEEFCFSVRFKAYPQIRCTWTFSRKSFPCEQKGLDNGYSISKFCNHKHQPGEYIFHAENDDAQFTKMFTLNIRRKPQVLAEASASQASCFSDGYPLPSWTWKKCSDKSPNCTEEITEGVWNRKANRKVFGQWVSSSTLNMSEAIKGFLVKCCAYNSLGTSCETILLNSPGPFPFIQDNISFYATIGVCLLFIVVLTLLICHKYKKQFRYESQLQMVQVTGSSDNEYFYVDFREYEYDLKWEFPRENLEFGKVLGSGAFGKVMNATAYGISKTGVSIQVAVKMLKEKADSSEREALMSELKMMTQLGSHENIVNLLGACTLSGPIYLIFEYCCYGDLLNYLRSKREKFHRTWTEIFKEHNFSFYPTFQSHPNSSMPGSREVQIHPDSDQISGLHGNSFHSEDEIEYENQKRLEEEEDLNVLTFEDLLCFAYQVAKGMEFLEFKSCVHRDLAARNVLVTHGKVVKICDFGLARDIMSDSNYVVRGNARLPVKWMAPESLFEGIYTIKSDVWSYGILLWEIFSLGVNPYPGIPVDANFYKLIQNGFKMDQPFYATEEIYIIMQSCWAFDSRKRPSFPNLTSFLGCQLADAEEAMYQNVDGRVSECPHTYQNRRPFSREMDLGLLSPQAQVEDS
test.protocol: FLT-3 kinase activity in cell free in vitro assay
Format: biochemical
condition.label: cell-free assay; read-out: FLT-3 (uM) IC50
Reported values of IC50 for individual entries

Completed entries (count: 2):
CONC(=O)c1ccc2c(c1)nc(Nc1cccc(Cl)c1)c1ccncc12
> 0.4 µM
O=C(O)c1ccc2nc(Nc3cccc(Cl)c3)c3ccncc3c2c1
> 0.4 µM

Now for the molecule whose IC50 we want.
Incoming: Item O=C(O)c1ccc2c(c1)nc(Nc1cccc(Cl)c1)c1cnccc12 has what recorded IC50?
Outgoing: > 0.4 µM

* * *

Tested on: MV-4-11
test.protocol: Cell proliferation modulatory activity, MV-4-11
Format: cell-based
condition.label: Homo sapiens, MV4-11; Table 45; read-out: MV-4-11 IC50
assay.endpoint: IC50

Incoming: Item Fc1ccc(Nc2nc3c(-c4nc[nH]n4)cccc3c3cnccc23)cc1F has what recorded IC50?
Outgoing: < 100 nM

Incoming: Item NS(=O)(=O)c1cccc(Nc2nc3c(-c4nc[nH]n4)cccc3c3cnccc23)c1 has what recorded IC50?
Outgoing: < 500 nM

Incoming: Item C#Cc1cccc(Nc2nc3c(-c4nnc[nH]4)cccc3c3cnccc23)c1 has what recorded IC50?
Outgoing: < 100 nM

Incoming: Item c1cc(-c2nc[nH]n2)c2nc(NCC3CC3)c3ccncc3c2c1 has what recorded IC50?
Outgoing: < 100 nM

Incoming: Item Fc1ccc(Nc2nc3c(-c4nnc[nH]4)cccc3c3cnccc23)c(Cl)c1 has what recorded IC50?
Outgoing: < 500 nM

* * *

System: HCT-116 human colorectal carcinoma cells
test.protocol: Cell-proliferation assay using Alamar Blue dye;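 also: cells exposed to compound for about 4 days, then Alamar Blue added and dye fluorescence read after about 4 h, compared with medium-only control wells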
Format: cell-based
condition.label: Homo sapiens, HCT-116, second HCT-116 column (c8); read-out: HCT-116 (uM) cell proliferation modulatory activity
Reported values of IC50 for individual entries

O=C(O)c1ccc2c(c1)nc(Nc1ccccc1OCc1ccccc1)c1ccncc12
> 10 µM
Fc1cc(Cl)cc(Nc2nc3cc(-c4nnn[nH]4)ccc3c3cscc23)c1
> 10 µM

Now for the compound whose IC50 we want.
Incoming: Item NNC(=O)c1ccc2c(c1)nc(Nc1cccc(Cl)c1)c1ccncc12 has what recorded IC50?
Outgoing: > 10 µM

* * *

assay.target: recombinant human CK2 (Homo sapiens (Human), UniProt P68400)
Sequence (P68400 whole entry): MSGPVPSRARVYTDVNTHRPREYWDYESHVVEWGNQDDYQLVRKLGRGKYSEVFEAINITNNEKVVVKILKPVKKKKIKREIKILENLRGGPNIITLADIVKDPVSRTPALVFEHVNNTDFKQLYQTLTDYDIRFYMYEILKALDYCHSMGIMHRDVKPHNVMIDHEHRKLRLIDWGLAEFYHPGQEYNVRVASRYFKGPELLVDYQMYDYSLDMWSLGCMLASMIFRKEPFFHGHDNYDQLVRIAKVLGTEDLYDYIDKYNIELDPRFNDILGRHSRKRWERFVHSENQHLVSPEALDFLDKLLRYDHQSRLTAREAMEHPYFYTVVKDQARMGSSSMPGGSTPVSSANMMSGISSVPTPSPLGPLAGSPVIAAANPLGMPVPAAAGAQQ
Sequence (P67870 whole entry partner): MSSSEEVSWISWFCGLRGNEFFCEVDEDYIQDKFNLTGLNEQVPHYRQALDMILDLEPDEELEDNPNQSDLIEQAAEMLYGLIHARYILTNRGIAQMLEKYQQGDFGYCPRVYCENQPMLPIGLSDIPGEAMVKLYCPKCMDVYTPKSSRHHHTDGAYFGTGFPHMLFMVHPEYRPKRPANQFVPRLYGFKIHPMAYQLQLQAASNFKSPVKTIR
test.protocol: CK2 assay (cell-free, 33P-ATP filter plate)
Assay type: biochemical
condition.label: 500 nM compound, cell-free assay; read-out: CK2: % inh 500 nM
Reported values of inhibition at 0.5 µM for individual entries
Reply with just the number (in %).

Completed entries (count: 3):
O=C(O)c1ccc2c(c1)nc(Nc1ccccc1Oc1ccccc1)c1ccncc12
96.5
Cc1noc(C)c1NC(=O)NCc1ccc2c(c1)nc(Nc1cccc(F)c1)c1ccsc12
-4.71
COC(=O)c1ccc2c(c1)nc(NCCn1cccc1)c1ccncc12
9.01

Now for the compound whose inhibition at 0.5 µM we want.
Incoming: Item O=C(O)c1ccc2c(c1)nc(Nc1ccc3cn[nH]c3c1)c1ccncc12 has what recorded inhibition at 0.5 µM?
Outgoing: 101

* * *

assay.target: recombinant human CK2 (Homo sapiens (Human))
test.protocol: CK2 assay (cell-free, 33P-ATP filter plate)
Assay type: biochemical
condition.label: 500 nM compound, cell-free; read-out: CK2: % inh 500 nM
assay.endpoint: inhibition at 0.5 µM (%)
Reply with just the number (in %).

COC(=O)c1ccc2c(c1)nc(Nc1ccccc1)c1nc(SC)ncc12
6.43
O=C(O)c1ccc2c(c1)nc(Nc1cccc(C(=O)NCc3cccnc3)c1)c1ccsc12
62.2

Now for the compound whose inhibition at 0.5 µM we want.
Incoming: Item CN(C)C(=O)Cc1cccc(Nc2nc3cc(C(=O)O)ccc3c3sccc23)c1 has what recorded inhibition at 0.5 µM?
Outgoing: 55.4
